The measurements presented in this section are drawn from ChEMBL document CHEMBL3885881.

Quick reference for NUCLEATED RED BLOOD CELLS among some compounds
species: Rattus norvegicus; experiment: DrugMatrix - Regimen: Daily Repeat; assay type: toxicity, organism-based, Sprague-Dawley; set-up: regimen Daily Repeat, gender Male, age 6-8 weeks; conditions: in vivo, po, 0 mg/kg, 72 h, tissue Blood, route oral GAVAGE, dose level Control, time 3 day, vehicle .5 % CMC

Would you please look over these solved cases?
>  <compound>
CC(/C=C1\SC(=S)N(CC(=O)O)C1=O)=C\c1ccccc1

>  <endpoint>
NUCLEATED RED BLOOD CELLS

>  <result>
0 /100WBC

$$$$
>  <compound>
C=C1CC[C@H](O)C/C1=C/C=C1\CCC[C@]2(C)[C@@H]([C@H](C)/C=C/[C@H](C)C(C)C)CC[C@@H]12

>  <endpoint>
NUCLEATED RED BLOOD CELLS

>  <result>
0 /100WBC

$$$$
>  <compound>
COC(=O)c1ccc(O)cc1

>  <endpoint>
NUCLEATED RED BLOOD CELLS

>  <result>
0 /100WBC

$$$$

Task: What value of NUCLEATED RED BLOOD CELLS has been recorded for this entry: CN1CCC[C@@H]1CCO[C@](C)(c1ccccc1)c1ccc(Cl)cc1
Output: 0 /100WBC

Task: What value of NUCLEATED RED BLOOD CELLS has been recorded for this entry: CC1(C)[C@H]2CC[C@]1(C)C(=O)C2 [(-)-CAMPHOR]
Output: 0 /100WBC

Task: What value of NUCLEATED RED BLOOD CELLS has been recorded for this entry: COc1c(C)c2c(c(O)c1C/C=C(\C)CCC(=O)OCCN1CCOCC1)C(=O)OC2 [MYCOPHENOLATE MOFETIL]
Output: 0 /100WBC

Task: What value of NUCLEATED RED BLOOD CELLS has been recorded for this entry: Cc1c(-c2ccccc2)oc2c(C(=O)OCCN3CCCCC3)cccc2c1=O [FLAVOXATE]
Output: 0.67 /100WBC

Task: What value of NUCLEATED RED BLOOD CELLS has been recorded for this entry: CCC[C@@H]1C[C@@H](C(=O)N[C@@H]([C@H]2O[C@H](SC)[C@H](O)[C@@H](O)[C@H]2O)[C@@H](C)O)N(C)C1
Output: 0.33 /100WBC

Task: What value of NUCLEATED RED BLOOD CELLS has been recorded for this entry: CC(C)[C@H](N)C(=O)OCCOCn1cnc2c(=O)[nH]c(N)nc21
Output: 0 /100WBC
